Across several publications, the following pIC50 results were reported for Ubiquitin carboxyl-terminal hydrolase 7 (Homo sapiens, UniProt Q93009).
pIC50: −log10 of the molar value.

Using the record for N#CN1Cc2[nH]nc(Nc3cc4ccccc4cn3)c2C1 , report its pIC50.
> 5.00

Same lookup for CCC(O)c1cc2nccc(-c3cc(Cl)cc4c3O[C@@H](C(=O)N3CCC(c5cnc[nH]5)CC3)C4)c2s1 (some centres unmarked) , please.
5.00 to 6.00

Same lookup for Cc1cc2ncnc(-c3cc(Cl)cc4c3O[C@@H](C(=O)N3CCNCC3)C4)c2s1 , please.
> 6.00

Same lookup for O=C1C2CC2C(=O)N1Cc1cc2nccc(-c3cc(Cl)cc(Cl)c3CC3CNCC4(CCC4)O3)c2s1 (centres unmarked) , please.
> 8.00

Same lookup for Cc1cc(Cl)cc(-c2ncnc3cc(CN4CCCCC4=O)sc23)c1CC1CNCCO1 (centres unmarked) , please.
< 7.00

* * *

Across several publications, the following pIC50 results were reported for Ubiquitin carboxyl-terminal hydrolase 7 (Homo sapiens, UniProt Q93009).
pIC50: −log10 of the molar value.

Using the record for CCN1CCc2noc([C@H]3Cc4cc(Cl)cc(-c5ncnc6ccoc56)c4O3)c2C1 , report its pIC50.
5.00 to 6.00

Same lookup for Cc1cc(Cl)cc(-c2ncnc3cc(CN4C(=O)CCCC4=O)sc23)c1CN1C[C@@H](C)NC[C@@H]1C , please.
> 8.00

Same lookup for CCN1CCc2noc([C@H]3Cc4cc(Cl)cc(-c5ccnc6cc(CO)sc56)c4O3)c2C1 , please.
> 6.00

Same lookup for N#Cc1cc2c(c(-c3ccnc4cc(CN5C(=O)C6CC6C5=O)sc34)c1)N([C@@H]1CN[C@@H](CO)C1)CCO2 (some centres unmarked) , please.
> 8.00

Same lookup for Cc1cc(Cl)cc(-c2ccnc3cc(CN4C(=O)CN(C)C4=O)sc23)c1CC1CNCC(C)(C)O1 (centres unmarked) , please.
> 8.00

Same lookup for CC(C)(O)C1Cc2nccc(-c3cc(Cl)cc4c3O[C@@H](c3onc5c3CNCC5)C4)c2C1 (some centres unmarked) , please.
5.00 to 6.00

Same lookup for Cc1cc(Cl)cc(-c2ncnc3cc(CN4C(=O)CN(C)C4=O)sc23)c1CN1C[C@@H](C)NC[C@@H]1C , please.
> 8.00

Same lookup for Cn1ncc2cc(-n3ncc4c3CN(C#N)C4)ccc21 , please.
> 5.00

* * *

Across several publications, the following IC50 results were reported for Ubiquitin carboxyl-terminal hydrolase 7 (Homo sapiens, UniProt Q93009).

Using the record for CCC(O)c1cc2ncnc(-c3cc(Cl)cc4c3O[C@@H](c3onc5c3CNCC5)C4)c2o1 (some centres unmarked) , report its IC50.
1000 to 10000 nM

Same lookup for O=C(C1Cc2cc(Cl)cc(-c3ccnc4[nH]ccc34)c2O1)N1CCC(O)(Cc2ccccc2)CC1 (centres unmarked) , please.
1000 to 10000 nM

Same lookup for O=C1CCC(=O)N1C1(c2cc3nccc(-c4cc(Cl)cc5c4N([C@H]4CCNC4)CCC5)c3s2)CC1 , please.
101 to 1000 nM

Same lookup for Cc1cc(Cl)cc(-c2ncnc3cc(CN4C(=O)OC[C@@H]4CO)sc23)c1C[C@@H]1CNCC(C)(C)O1 , please.
< 10 nM

Same lookup for O=c1ccn(CC(F)F)c(=O)n1Cc1cc2nccc(-c3cc(Cl)cc4c3N([C@H]3CCNC3)CCC4)c2s1 , please.
< 10 nM

Same lookup for O=C(CCc1cccnc1)N1CCC(O)(Cn2cnc3cc(Cl)ccc3c2=O)CC1 , please.
> 10000 nM

Same lookup for CC(C)(C)C(=O)N1CCC(O)(Cn2cnc3cc(Cl)ccc3c2=O)CC1 , please.
> 10000 nM

Same lookup for CN1CCN(c2ccc(-c3n[nH]c4c3CN(C#N)C4)cn2)CC1 , please.
< 10000 nM
